Target: T1, soluble human FcRn (shFcRn) (human, UniProt P55899 24-297; P61769 21-119)
T1 construct: Biotinylated for the ELISA, amine-coupled to a CM5 chip for SPR; also called biotinylated shFcRn
T1 sequence (P55899 24-297 limits assumed, chain 1 of 2): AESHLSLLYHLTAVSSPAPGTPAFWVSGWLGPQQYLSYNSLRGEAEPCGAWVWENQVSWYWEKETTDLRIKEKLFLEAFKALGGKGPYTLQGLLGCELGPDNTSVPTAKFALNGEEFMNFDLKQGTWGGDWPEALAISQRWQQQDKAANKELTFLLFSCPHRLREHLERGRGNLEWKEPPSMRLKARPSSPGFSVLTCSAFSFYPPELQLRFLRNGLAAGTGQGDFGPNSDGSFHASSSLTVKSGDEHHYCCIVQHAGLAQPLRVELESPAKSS
T1 sequence (P61769 21-119 limits assumed, chain 2 of 2): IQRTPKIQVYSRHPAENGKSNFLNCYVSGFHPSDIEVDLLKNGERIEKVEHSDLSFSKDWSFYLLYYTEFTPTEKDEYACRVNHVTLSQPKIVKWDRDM
Assay: IgG competition ELISA
Bridge positions count the residues as written; N and C are the ends. Square brackets hold non-standard residues; d marks the D form. Ends that are not written are not given here. His(1-Me) = 1-methylhistidine; NMeL = CN[C@@H](CC(C)C)C(=O)O; Pen = CC(C)(S)[C@H](N)C(=O)O; Sar = CNCC(=O)O
In this scheme, each record receives a class according to its IC50; the ranges are lower level: < 3 µM; middle level: ≥ 3 µM and < 6 µM; upper level: ≥ 6 µM

Before answering, review these 5 worked examples.
binder	answer label
RFCTGXFGGLYPC (Pen 3; 4-PyridylAla 6; Sar 9; NMeLeu 10; disulfide 3-13; C-terminal amide) [Peptide No. 268]	lower level
QRF[Pen]TG[His(1-Me)]FGGLYPCNGP-NH2 (disulfide 4-14) [Peptide No. 138]	middle level
RFCTGXFGGLYPC (Pen 3; PropargylGly 6; Sar 9; NMeLeu 10; disulfide 3-13; C-terminal amide) [Peptide No. 261]	upper level
RF[Pen]TGAFG[Sar][NMeL]YPC-NH2 (disulfide 3-13; N-terminus assumed; SMILES CC(C)C[C@H]1C(=O)N[C@@H](Cc2ccc(O)cc2)C(=O)N2CCC[C@H]2C(=O)N[C@H](C(N)=O)CSSC(C)(C)[C@H](NC(=O)[C@H](Cc2ccccc2)NC(=O)[C@@H](N)CCCNC(=N)N)C(=O)N[C@@H]([C@@H](C)O)C(=O)NCC(=O)N[C@@H](C)C(=O)N[C@@H](Cc2ccccc2)C(=O)NCC(=O)N(C)CC(=O)N1C) [Peptide No. 266]	upper level
RFCTGXFGGLYPC (Pen 3; Thz(Me) 6 (N-methyl-thiazolium); Sar 9; NMeL 10; disulfide 3-13; C-terminal CONH2) [Peptide No. 269]	lower level

Then this binder:
stdin: Given RFCTGXFGGLYPC (Pen 3; 3PyridylAla 6; Sar 9; NMeL 10; disulfide 3-13; C-terminal amide) [Peptide No. 250] , name the class its IC50 places it in.
stdout: lower level
